Every entry's value here was drawn from patent US20250361295A1.

Target: human LILRB4 (human, UniProt Q8NHJ6 22-448)
Test: cell-based or functional assay
ENDPOINT_NAME: ADCP (%) at 133.3 nM, macrophages and MV-4-11 cells

INSERT INTO assay_data (binder, quantitative_readout) VALUES
  ('ch27-D11-C2-A10 (antibody, V domains shown) VH: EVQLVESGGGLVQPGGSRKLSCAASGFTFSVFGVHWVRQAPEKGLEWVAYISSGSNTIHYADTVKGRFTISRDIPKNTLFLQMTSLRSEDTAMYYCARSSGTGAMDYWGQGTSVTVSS VL: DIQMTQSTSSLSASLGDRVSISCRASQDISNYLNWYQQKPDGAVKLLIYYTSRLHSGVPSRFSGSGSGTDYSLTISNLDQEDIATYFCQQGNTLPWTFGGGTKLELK', 12.1),
  ('ch27-F11-E10-G10 (antibody, V domains shown) VH: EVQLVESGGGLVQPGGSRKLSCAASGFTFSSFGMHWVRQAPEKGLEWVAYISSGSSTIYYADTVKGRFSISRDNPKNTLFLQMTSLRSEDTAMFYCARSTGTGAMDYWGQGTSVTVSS VL: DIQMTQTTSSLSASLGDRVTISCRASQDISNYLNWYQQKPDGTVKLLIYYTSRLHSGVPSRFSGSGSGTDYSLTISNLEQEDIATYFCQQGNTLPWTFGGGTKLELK', 16.3),
  ('ch2-H8-C9-F7-E2 (antibody, V domains shown) VH: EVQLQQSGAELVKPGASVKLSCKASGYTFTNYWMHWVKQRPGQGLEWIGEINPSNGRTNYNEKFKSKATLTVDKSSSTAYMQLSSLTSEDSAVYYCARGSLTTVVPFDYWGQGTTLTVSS VL: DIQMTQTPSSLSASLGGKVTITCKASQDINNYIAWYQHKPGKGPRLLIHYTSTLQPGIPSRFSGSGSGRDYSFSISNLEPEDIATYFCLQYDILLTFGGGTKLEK', 9.35);
